Biological target: β1 adrenergic receptor (β1AR*, with mutations R68S, Y227A, A282L, F237A, and F338M) (Meleagris gallopavo, UniProt P07700, A282L/F327A/F338M/R68S/Y227A)
Assay: biochemical
Format: binding, turkey
Measured Quantity: kd

Some molecules with recorded kd:
1. CC(C)(C)NCC(O)c1cc(Cl)c(N)c(Cl)c1 (stereo not shown); 1.33(5) × 10^−1 s^−1
2. C=CCc1ccccc1OCC(O)CNC(C)C (stereo not shown); 2.49(7) × 10^−2 s^−1
3. CC(C)(C)NC[C@H](O)COc1nsnc1N1CCOCC1; 6.94(8) × 10^−3 s^−1

Continue with the molecule presented below.
Which measured kd value corresponds to OC(CNCC(O)C1CCc2cc(F)ccc2O1)C1CCc2cc(F)ccc2O1 (stereo not shown) ? 1.50(3) × 10^−2 s^−1

The reported numbers originate from paper PMC3010267.
